System Under Test: wild-type E. coli transketolase (TK; TKhigh / TKlow subpopulations) (Escherichia coli)
Construct: full length, N-terminal His6-tag kept, from plasmid pQR791 in E. coli XL10-gold; apo form after dialysis; homodimer; about one third oxidised (TKhigh), rest unmodified (TKlow)
Sequence (P27302 whole entry): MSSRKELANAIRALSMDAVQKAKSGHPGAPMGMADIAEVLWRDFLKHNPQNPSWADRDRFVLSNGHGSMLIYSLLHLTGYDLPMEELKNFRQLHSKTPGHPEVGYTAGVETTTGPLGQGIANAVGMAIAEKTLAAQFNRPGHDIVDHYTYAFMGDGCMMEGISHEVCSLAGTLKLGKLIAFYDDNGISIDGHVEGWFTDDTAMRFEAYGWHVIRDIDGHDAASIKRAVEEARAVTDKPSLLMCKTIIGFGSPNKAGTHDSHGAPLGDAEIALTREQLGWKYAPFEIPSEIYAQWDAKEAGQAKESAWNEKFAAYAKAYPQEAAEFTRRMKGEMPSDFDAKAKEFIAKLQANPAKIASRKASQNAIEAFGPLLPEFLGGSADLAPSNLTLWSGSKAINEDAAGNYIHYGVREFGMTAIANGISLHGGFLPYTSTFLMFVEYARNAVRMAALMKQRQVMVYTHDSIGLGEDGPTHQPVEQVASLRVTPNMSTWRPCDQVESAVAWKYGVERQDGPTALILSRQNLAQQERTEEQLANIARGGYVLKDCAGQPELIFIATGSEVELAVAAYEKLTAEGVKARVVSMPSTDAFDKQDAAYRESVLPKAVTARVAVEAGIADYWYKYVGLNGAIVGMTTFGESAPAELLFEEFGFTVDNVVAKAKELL
Method: intrinsic fluorescence quenching (ex […] nm, em […] nm), double-Hill fit
Conditions Used: read-out: Kd(high)
pKd: −log10 of the molar value.
Parameter: pKd

Molecule	Readout Number
Cc1ncc(C[n+]2csc(CCOP(=O)(O)OP(=O)(O)O)c2C)c(N)n1 [TPP, thiamine pyrophosphate]	5.64
